- system: hALDH2 (recombinant human mitochondria ALDH) (Homo sapiens)
- Sequence (P05091 18-517): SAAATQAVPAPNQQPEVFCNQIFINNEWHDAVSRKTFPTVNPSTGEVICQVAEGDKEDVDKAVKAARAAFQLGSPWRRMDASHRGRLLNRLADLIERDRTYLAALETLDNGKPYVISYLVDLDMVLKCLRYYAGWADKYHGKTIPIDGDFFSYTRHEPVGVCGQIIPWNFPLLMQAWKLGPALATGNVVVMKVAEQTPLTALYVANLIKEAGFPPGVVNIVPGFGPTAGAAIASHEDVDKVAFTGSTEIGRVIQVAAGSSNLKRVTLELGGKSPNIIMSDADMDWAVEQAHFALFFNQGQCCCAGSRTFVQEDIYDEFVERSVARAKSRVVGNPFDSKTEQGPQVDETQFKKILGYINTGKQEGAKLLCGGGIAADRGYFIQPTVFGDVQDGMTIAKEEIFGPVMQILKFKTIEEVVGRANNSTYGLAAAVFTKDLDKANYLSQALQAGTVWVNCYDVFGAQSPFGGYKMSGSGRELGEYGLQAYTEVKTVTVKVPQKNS
- protocol details: ALDH2 inhibition assay (NADH formation, formaldehyde substrate)
measured attribute: IC50 (nM)
# unit: nM | format: bare number

get_value(item= O=C(O)c1coc(COc2ccc3c(=O)c(-c4ccc(O)cc4)coc3c2)n1 [PT-102] , readout=IC50) returns 16

get_value(item= O=c1c(-c2ccc(O)cc2)coc2cc(OCc3cccc(C(F)(F)F)c3)ccc12 [PT-26] , readout=IC50) returns 34

get_value(item= N#Cc1ccc(-c2coc3cc(OCc4cc(-c5cccc(C(F)(F)F)c5)no4)ccc3c2=O)cc1 [PT-69] , readout=IC50) returns 180

get_value(item= O=C(COc1ccc2c(=O)c(-c3ccc(O)cc3)coc2c1)Nc1ccccc1C(F)(F)F [PT-84] , readout=IC50) returns 15

get_value(item= O=c1c(-c2ccc(O)cc2)coc2cc(OCc3cnc(-c4ccccc4)o3)ccc12 [PT-61] , readout=IC50) returns 96

get_value(item= O=c1c(-c2ccc(O)cc2)coc2cc(OCc3cc(F)cc(C(F)(F)F)c3)ccc12 [PT-28] , readout=IC50) returns 58

get_value(item= C[C@@H](NCC(=O)COc1ccc2c(=O)c(-c3ccc(O)cc3)coc2c1)c1ccc(F)cc1 [PT-56] , readout=IC50) returns 8

get_value(item= O=c1c(-c2ccc(O)cc2)coc2cc(OCc3cc(-c4cc(C(F)(F)F)cc(C(F)(F)F)c4)on3)ccc12 [PT-62] , readout=IC50) returns 72

get_value(item= COc1ccc2c(COc3ccc4c(=O)c(-c5ccc(O)cc5)coc4c3)cc(=O)oc2c1 [PT-119] , readout=IC50) returns 68

get_value(item= Cc1nc(-c2ccc(C(F)(F)F)cc2)sc1COc1ccc2c(=O)c(-c3ccc(O)cc3)coc2c1 [PT-4] , readout=IC50) returns 200

get_value(item= O=c1c(-c2ccc(O)cc2)coc2cc(OCc3nnc(-c4ccccc4Cl)o3)ccc12 [PT-80] , readout=IC50) returns 4

get_value(item= O=c1c(-c2ccc(O)cc2)coc2cc(OCc3noc(-c4ccc(C(F)(F)F)cc4)n3)ccc12 [PT-38] , readout=IC50) returns 600

get_value(item= N#Cc1cccc(-c2nc(COc3ccc4c(=O)c(-c5ccc(O)cc5)coc4c3)no2)c1 [PT-40] , readout=IC50) returns 22

get_value(item= O=c1c(-c2ccc(O)cc2)coc2cc(OCc3noc(-c4cccc(F)c4)n3)ccc12 [PT-42] , readout=IC50) returns 62

get_value(item= COC(=O)c1cccc(COc2ccc3c(=O)c(-c4ccc(O)cc4)coc3c2)c1 [PT-33] , readout=IC50) returns 150

get_value(item= O=C(O)c1cnc(COc2ccc3c(=O)c(-c4ccc(O)cc4)coc3c2)o1 [PT-49] , readout=IC50) returns 16

get_value(item= O=C(COc1ccc2c(=O)c(-c3ccc(O)cc3)coc2c1)c1ccccc1C(F)(F)F [PT-85] , readout=IC50) returns 70
